Test system: Monocotyledonous and dicotyledonous test plants
Experiment Summary: Herbicidal action prior to emergence of the plants (pre-emergence action), Example B1
Type: in vivo
Experimental Context: preemergence application, 250 g/ha, BRAPL, evaluated after 4 weeks; 100%=total damage, 0%=no damage
Property: herbicidal damage, BRAPL; scope: individual compounds
Give just the number in %; leave the unit off.

Check out these entries, answers already filled in.
>>> recorded_measurement("O=C(C1=C(O)C2CCC(C2)C1=O)c1ccc(C(F)(F)F)n2c(-c3ccc(Cl)cc3)nnc12 (stereo not drawn)")
100
>>> recorded_measurement("COCc1nnc2c(C(=O)C3=C(O)C4CCC(C4)C3=O)ccc(C(F)(F)F)n12 (stereo not drawn)")
70
>>> recorded_measurement("CC1(C)C(=O)C(C(=O)c2ccc(C(F)(F)F)n3c(-c4ccc(Cl)cc4)nnc23)=C(O)C(C)(C)C1=O")
20
>>> recorded_measurement("O=C1CCCC(O)=C1C(=O)c1ccc(C(F)(F)F)n2c(C3CC3)nnc12")
30

Qu. Quick one: herbicidal damage, BRAPL for CCOc1nnc2c(C(=O)C3=C(O)C4CCC(C4)C3=O)ccc(C(F)(F)F)n12 (stereo not drawn) ?
Ans. 100

Qu. What value of herbicidal damage, BRAPL has been recorded for this entry: `Cc1nnc2c(C(=O)C3=C(O)C(C)(C)C(=O)C(C)(C)C3=O)ccc(C(F)(F)F)n12`
Ans. 70

Qu. Fill blank: measured herbicidal damage, BRAPL of the compound O=C(C1=C(O)C2CCC(C2)C1=O)c1ccc(C(F)(F)F)n2c(C3CC3)nnc12 (stereo not drawn) is ____.
Ans. 100

Qu. Value lookup for herbicidal damage, BRAPL; key = `COCc1nnc2c(C(=O)C3=C(O)C(C)(C)C(=O)C(C)(C)C3=O)ccc(C(F)(F)F)n12`
Ans. 20

Qu. Look up herbicidal damage, BRAPL for this compound: `O=C1CCCC(O)=C1C(=O)c1ccc(C(F)(F)F)n2c(Br)nnc12`
Ans. 0
